Form field: pIC50 (one value per entry).
test_system: human poly-histidine tagged KSP motor domain (KSP(367H)) (Homo sapiens, UniProt P52732)
Construct: were used to amplify the motor domain and the neck linker region; made in house; host or cells: E. coli BL21 (DE3), vector pRSETa
Sequence (P52732 18-359 limits assumed): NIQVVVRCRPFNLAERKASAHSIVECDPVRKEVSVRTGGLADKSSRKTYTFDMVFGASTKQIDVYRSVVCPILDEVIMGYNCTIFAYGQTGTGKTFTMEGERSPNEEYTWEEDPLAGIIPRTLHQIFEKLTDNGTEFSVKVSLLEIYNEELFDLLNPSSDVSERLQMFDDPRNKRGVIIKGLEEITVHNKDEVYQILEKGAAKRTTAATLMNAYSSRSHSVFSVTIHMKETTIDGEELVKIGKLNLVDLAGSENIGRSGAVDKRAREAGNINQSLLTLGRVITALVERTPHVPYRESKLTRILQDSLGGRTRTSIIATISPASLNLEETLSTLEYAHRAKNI
method: Kinesin ATPase In Vitro Assay
Format: biochemical
applied_conditions: (3R,4R) enantiomeric form tested; kinesin motor domain with microtubules, 1 mM ATP, 23° C., free phosphate by quinaldine red/ammonium molybdate; read-out: IC50
pIC50: −log10 of the molar value.
outcome_measure: pIC50

* CC(=O)C1=NN2c3cc(F)ccc3OC[C@H]2[C@@]1(CCCN1CCN(C(=O)CO)CC1)c1ccccc1 | ≥ 4.52
* CC(=O)C1=NN2c3cc(F)ccc3OC[C@H]2[C@@]1(CCCN1CCN(C)C(=O)C1)c1ccccc1 | ≥ 4.52
* CC(=O)C1=NN2c3cc(F)ccc3OCC2[C@@]1(CCCN1CC2C[C@@H]1CO2)c1ccccc1 (mixture of isomers) | ≥ 4.52
* CC(=O)C1=NN2c3cc(F)ccc3OC[C@H]2[C@@]1(CCCN1CCN(C(=O)c2cc(C)on2)CC1)c1ccccc1 | ≥ 4.52
* CON(C)C(=O)C1=NN2c3cc(F)ccc3OC[C@H]2[C@H]1c1ccccc1 | ≥ 4.52
* CC(=O)NCCNCCC[C@]1(c2ccccc2)C(C(C)=O)=NN2c3cc(F)ccc3OC[C@H]21 | ≥ 4.52
* COC(=O)C(=O)N1CCN(CCC[C@]2(c3ccccc3)C(C(C)=O)=NN3c4cc(F)ccc4OC[C@H]32)CC1 | ≥ 4.52

Source of measurements: patent US7632833B2
